Target chain: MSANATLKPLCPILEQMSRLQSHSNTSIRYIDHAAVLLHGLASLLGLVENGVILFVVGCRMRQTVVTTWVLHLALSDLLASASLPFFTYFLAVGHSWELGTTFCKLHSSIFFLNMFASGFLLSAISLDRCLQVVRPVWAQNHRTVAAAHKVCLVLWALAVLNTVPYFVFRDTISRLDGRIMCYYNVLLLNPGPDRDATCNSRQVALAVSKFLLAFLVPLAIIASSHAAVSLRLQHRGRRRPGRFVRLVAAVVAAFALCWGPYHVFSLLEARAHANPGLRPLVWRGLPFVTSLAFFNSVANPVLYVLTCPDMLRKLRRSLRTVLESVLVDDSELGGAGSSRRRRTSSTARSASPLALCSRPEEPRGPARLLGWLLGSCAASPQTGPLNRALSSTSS
pIC50: −log10 of the molar value.
Measure Name: pIC50

[
  {
    "Compound": "CCCC(=O)N(Cc1ccc2c(c1)OCCO2)c1cccc(-c2nnn[nH]2)c1 [Example 19]",
    "pIC50": 7.82
  },
  {
    "Compound": "CCC(=O)N(Cc1ccc(-c2ccccc2OC)cc1)c1cc(F)cc(-c2nnn[nH]2)c1 [Example 99]",
    "pIC50": 7.89
  },
  {
    "Compound": "CCC(=O)N(Cc1cccc(-c2ccncc2)c1)c1cccc(-c2nnn[nH]2)c1 [Example 96]",
    "pIC50": 6.48
  }
]

P = CCC(=O)N(Cc1ccc(F)cc1)c1cccc(-c2nnn[nH]2)c1 [Example 31]
Q = CCC(=O)N(Cc1c(-c2ccccc2)noc1C)c1cccc(-c2nnn[nH]2)c1 [Example 23]
Endpoint returns whichever of P and Q has the numerically higher pIC50. Your choice should be expressed through its label.
P

* * *

Protein target, amino acids: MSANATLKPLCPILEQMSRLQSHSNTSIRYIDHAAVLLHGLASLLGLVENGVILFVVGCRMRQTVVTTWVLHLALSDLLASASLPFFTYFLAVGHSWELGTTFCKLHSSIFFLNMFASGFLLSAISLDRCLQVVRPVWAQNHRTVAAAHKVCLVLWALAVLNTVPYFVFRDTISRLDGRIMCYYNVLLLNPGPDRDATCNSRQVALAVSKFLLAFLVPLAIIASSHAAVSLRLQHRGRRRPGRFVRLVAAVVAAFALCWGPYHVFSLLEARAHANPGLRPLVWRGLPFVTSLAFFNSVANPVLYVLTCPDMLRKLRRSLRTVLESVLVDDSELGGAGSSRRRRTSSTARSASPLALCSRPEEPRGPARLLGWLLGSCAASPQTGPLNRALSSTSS
pIC50: −log10 of the molar value.
Measure Name: pIC50

[
  {
    "Smiles Notation": "CCC(=O)N(Cc1cccc(-c2ccncc2)c1)c1cc(F)cc(-c2nnn[nH]2)c1",
    "pIC50": 7.60
  },
  {
    "Smiles Notation": "CCC(=O)N(Cc1ccc(S(=O)(=O)C(F)(F)F)cc1)c1cc(F)cc(-c2nnn[nH]2)c1",
    "pIC50": 8.25
  },
  {
    "Smiles Notation": "CCC(=O)N(Cc1ccc(-c2sc(C)nc2C)cc1)c1cc(F)cc(-c2nnn[nH]2)c1",
    "pIC50": 8.28
  },
  {
    "Smiles Notation": "CCC(=O)N(Cc1ccc(-c2c(C)nn(C)c2C)cc1)c1cc(F)cc(-c2nnn[nH]2)c1",
    "pIC50": 7.68
  }
]

I = CCC(=O)N(Cc1ccc(S(C)(=O)=O)cc1)c1cc(F)cc(-c2nnn[nH]2)c1
II = CCCCC(=O)N(Cc1ccc(OC(F)(F)F)cc1)c1cc(F)cc(-c2nnn[nH]2)c1
III = CCC(=O)N(Cc1ccc(OC(F)(F)F)cc1)c1cc(Cl)cc(-c2nnn[nH]2)c1
IV = CCC(=O)N(Cc1ccc(-c2cn[nH]c2)cc1)c1cccc(-c2nnn[nH]2)c1
V = CCC(=O)N(Cc1ccc2c(c1)OCCO2)c1cccc(-c2nnn[nH]2)c1
Please list these compounds in decreasing order of pIC50. A ranking is expressed here by listing the labels in the requested order.
I, II, III, V, IV
(I: 8.46, II: 8.05, III: 7.82, V: 7.29, IV: 6.34)

These measurements were taken from patent US20120115869A1.
